Entries and their IC50
target or system: 3CL protease of 2019 Novel Coronavirus (2019-nCoV 3CLpro) (Severe acute respiratory syndrome coronavirus 2, UniProt P0DTD1)
Construct: the 3CL protease of 2019 Novel Coronavirus (2019-nCoV 3CL^pro)
test description: FRET inhibitory activity against 3CL protease of 2019 Novel Coronavirus
Assay type: biochemical
recorded conditions: FRET, tables 1A/1B; read-out: IC50 (nM) of SARS-CoV-2 3 CL protease
Output spec: scalar in nM, unitless text.

Example entries and their recorded answers appear below.
{"chemical string": "O=C[C@H](C[C@@H]1CCNC1=O)NC(=O)[C@H](Cc1ccc(F)c(F)c1)NC(=O)c1cc2ccccc2[nH]1", "recorded measurement": 87}
{"chemical string": "O=C[C@H](C[C@@H]1CCNC1=O)NC(=O)[C@H](Cc1cccc(F)c1)NC(=O)c1cc2c(F)ccc(F)c2[nH]1", "recorded measurement": 113}

In: What value of IC50 has been reported for the following compound? "CC(C)[C@H](NC(=O)c1cc2cccc(Br)c2o1)C(=O)N[C@@H](CC1CCCCC1)C(=O)N[C@H](C=O)C[C@@H]1CCNC1=O"
Out: 238

In: Quick one: "O=C[C@H](C[C@@H]1CCNC1=O)NC(=O)[C@H](Cc1ccc(F)cc1)NC(=O)c1cc2ccccc2[nH]1"
Out: 103

In: Quick one: "CC(C)[C@H](NC(=O)c1cc2cc(Cl)ccc2o1)C(=O)N[C@@H](CC1CCCCC1)C(=O)N[C@H](C=O)C[C@@H]1CCNC1=O"
Out: 150

---

target or system: 3CL protease of 2019 Novel Coronavirus (2019-nCoV 3CLpro) (Severe acute respiratory syndrome coronavirus 2)
Construct: the 3CL protease of 2019 Novel Coronavirus (2019-nCoV 3CL^pro)
test description: FRET inhibitory activity against 3CL protease of 2019 Novel Coronavirus
Assay type: biochemical
recorded conditions: compound at 1 μM; read-out: Inhibition rate (1 μM), 3CL protease of 2019 Novel Coronavirus
readout kind: inhibition at 1 µM (%)
Output spec: scalar in %, unitless text.

{"compound": "O=C[C@H](C[C@@H]1CCNC1=O)NC(=O)[C@H](Cc1cccc(F)c1)NC(=O)c1cc2c(F)ccc(F)c2[nH]1 [Compound 83]", "measure unit": "%", "recorded measurement": 97.8}
{"compound": "CC(C)[C@H](NC(=O)c1cc2cccc(Br)c2o1)C(=O)N[C@@H](CC1CCCCC1)C(=O)N[C@H](C=O)C[C@@H]1CCNC1=O [Compound 18]", "measure unit": "%", "recorded measurement": 97.8}
{"compound": "CC(C)[C@H](NC(=O)c1cc2cc(Cl)ccc2o1)C(=O)N[C@@H](CC1CCCCC1)C(=O)N[C@H](C=O)C[C@@H]1CCNC1=O [Compound 20]", "measure unit": "%", "recorded measurement": 101}
{"compound": "O=C[C@H](C[C@@H]1CCNC1=O)NC(=O)[C@H](Cc1ccc(F)c(F)c1)NC(=O)c1cc2ccccc2[nH]1 [Compound 12]", "measure unit": "%", "recorded measurement": 103}

Moving on to the next compound.
In: What value of inhibition at 1 µM has been reported for the following compound? O=C[C@H](C[C@@H]1CCNC1=O)NC(=O)[C@H](Cc1ccc(F)cc1)NC(=O)c1cc2ccccc2[nH]1 [Compound 82]
Out: 101
